Hey, just so you know, these numbers are from ChEMBL document CHEMBL3988442.

Please respond with reported Percent Effect for every item in the list.
# System: Trypanosoma cruzi
# test: Trypanosoma cruzi phosphomannomutase and mannose-1-phosphate guanylyltransferase assay
# Format: functional
# Parameters: scale not given: direction of the effect not stated beside the values
# appliedConditions: 10 µM
// units = %; emit number, no label

Field Percent Effect (entry CCCS(=O)(=O)N1CCC(NC(=O)c2cc(C)c(CC)s2)CC1 ) reads 5.94

Field Percent Effect (entry COCC1c2c(cnn2C)CCN1Cc1ccoc1 (stereo unspecified) ) reads -1.95

Field Percent Effect (entry O=C(NCCc1ccncc1)C1CCN(Cc2ccco2)CC1 ) reads -6.52

Field Percent Effect (entry CC(C)c1nccn1C1CCCN(C(=O)c2cccc3c2OCO3)C1 (stereo unspecified) ) reads 2.55

Field Percent Effect (entry COc1cc(N2C[C@@H]3COC[C@]3(COCc3cccc(C)n3)C2)ncn1 ) reads 4.79

Field Percent Effect (entry CCC(CC)NC(=O)Cn1nc(C)nc1-c1ccccc1 ) reads -6.32
